# Test system: MS2 coat protein
# method.description: apparent KD of MS2 coat protein; designed switch direction (-1 OFF switch, 1 ON switch): 1; higher = weaker reporter binding
# run.parameters: input ligand: none
Decision: apparent KD of MS2 coat protein >= 100 nM yields Fulfilled, all other cases yield Not fulfilled.

Record excerpt, results attached:
sequence.record | class
AUAUUCUUCCGCGACACCCACAUGAGGAUCACCCAUGUUGAACAGGAUAUGUAGUUCAUCUGAACACAGAAGGGUUAAAGGAAG [Eternabot solution 28] (Eterna round: R96, puzzle: Same State NG 3) | Not fulfilled
AUUAUUAAUGCAGGAUAUGAUUAACAUGAGGAUCACCCAUGUGGUGUUGUGAGUAAGGAGAGUGAUCAGAAGGGCAUUUUUAUU [JMF's solution 13] (Eterna round: R96, puzzle: Same State NG 2) | Fulfilled
GCUACAUGAGGAUCACCCAUGUGUGCGUGGGAGUGAGUGGCUUAGGAUAUCUAUGACUUUAGUUGAGAGAAGGAGGAUUGCUGU [SS-NG3-LRO11] (Eterna round: R96, puzzle: Same State NG 3) | Fulfilled
GAGAGAUGAUUAGGAUAUACGGUGAUAAUGAUAGUAGAAGGAAUUGACAUGAGGAUCACCCAUGUGGGAAUAAUCCAGAGAGAG [Parity 22 - Jieux - Same State NG 1] (Eterna round: R96, puzzle: Same State NG 1) | Fulfilled
CUGAGCAAUCGAGGAUAUCACGUCGAAUAGACGUGAGAAGGCGAUCAUAACAUGAGGAUCACCCAUGUAUUACAUGAAGCUCAG [SSNG1/4-A1] (Eterna round: R96, puzzle: Same State NG 1) | Not fulfilled

Given the entry GUUACAUGAGGAUCACCCAUGUAUGUGUGGGAGUAAGUGUCUUAGGAUAUCUAGUAUUUAAAUUAAGAGAAGGAAGAUUGUUGU [JMF's solution 9] (Eterna round: R96, puzzle: Same State NG 3) , answer whether its apparent KD of MS2 coat protein meets or surpasses 100 nM. Fulfilled

Please do the same for AUUUUCAAUGCAGGAUAUGAUUAACAUGAGGAUCACCCAUGUGGUGUUGUGAGUAAGGAGAGUGAUCAGAAGGGCAUUUUUUUU [JMF's solution 97] (Eterna round: R96, puzzle: Same State NG 2) as well. Fulfilled

Try GAGGGCGGAAACAACAUGAGGAUCACCCAUGUUGCCGAAAGGCAGGAUAUCCGGCGAAAGCAGAAGGAGAAGGGUCGAAAAGAA [AK SSNG3-V2-41] (Eterna round: R96, puzzle: Same State NG 3) next. Not fulfilled

Next: GUGGUCUGACAUGAGGAUCACCCAUGUGGAAUAAAUACGGGUUAGGAUAUCUUGAGGAUCACCCAAGAGAAGGGAUGGAUUGUU (Eterna round: R96, puzzle: Same State NG 3) Not fulfilled
